This listing pairs compounds with measured TGI.
test system: OVCAR-3 ovarian; experiment: NCI tumour cell line growth inhibition, 48 h

compound: CC(=O)N(O)CCCCCNC(=O)CCC(=O)N(O)CCCCCNC(=O)CCC(=O)N(O)CCCCCN
TGI: > 100 µM
//
compound: CCOC(=O)C1=C(OC(OCC)C(C)[Se]c2ccccc2)CCC1 (configuration not stated)
TGI: 32 µM
//
compound: NS(=O)(=O)c1nnc(NS(=O)(=O)c2ccc(F)cc2)s1
TGI: > 100 µM
//
compound: Cc1nn(CCO)c(C)c1N=[N+]([O-])c1c(C)nn(CCO)c1C
TGI: 3.65 µM
//
compound: CCOC(=O)/C(=C\NCc1ccc2c(c1)OCO2)c1nc2ccccc2[nH]1
TGI: > 100 µM
//
compound: CC1(C)CC[C@]2(C(N)=O)CC[C@]3(C)C(=CC[C@@H]4[C@@]5(C)C/C(=C/c6cccnc6)C(=O)C(C)(C)[C@@H]5CC[C@]43C)[C@@H]2C1
TGI: 3.53 µM
//
compound: CC(C)=CC(=O)OC1C(CO)OC(Oc2cc(O)c3c(=O)cc(-c4ccc(O)c(O)c4)oc3c2)C(OC2OC(C)C(O)C(O)C2O)C1O (configuration not stated)
TGI: > 100 µM
//
compound: Cc1ccc(NC(=O)SCCC(=O)O)cc1
TGI: > 100 µM
//
compound: CCCCOC(=O)C(=O)C(CC(CC)C(=O)c1ccccc1)C(=O)C=C(C)C (configuration not stated)
TGI: > 100 µM
//
compound: C=C1CCc2ccccc2C1=O
TGI: > 100 µM
//
compound: C/C(=N\NC(=O)c1ccncc1)c1ccccc1Cl
TGI: > 100 µM
//
compound: O=C(O)CCCNS(=O)(=O)c1ccccc1
TGI: > 100 µM

###

tested on: DU-145 prostate; experiment: NCI tumour cell line growth inhibition, 48 h; in the data active means GI50 below about 0.43 µM; inactive means the rest
Classes used: 1 (yes) = active, 0 (no) = inactive

molecule: Nn1c2c(c3ccccc3c1=O)C(=O)c1ccccc1-2
targetOfAssay: DU-145 prostate
answerLabel: 0 (no)
//
molecule: COc1ccc(N2CCN(C(=O)c3ccc(C(F)(F)F)nc3Nc3cc(Cl)ccc3C)CC2)cc1
targetOfAssay: DU-145 prostate
answerLabel: 0 (no)
//
molecule: COc1ccc2nc3cccc([N+](=O)[O-])c3c(NCCNCCO)c2c1
targetOfAssay: DU-145 prostate
answerLabel: 1 (yes)
//
molecule: CCCCCCCC(=O)SCC/C=C/[C@@H]1CC(=O)NCc2cccc(n2)CN(Cc2ccc3ccccc3c2)CC(=O)N[C@@H](C(C)C)C(=O)O1
targetOfAssay: DU-145 prostate
answerLabel: 0 (no)
//
molecule: CC(O)CCc1ccc(Oc2c3ccccc3nc3occc23)cc1 (centres undefined)
targetOfAssay: DU-145 prostate
answerLabel: 0 (no)
//
molecule: CCOC(=O)c1nnn(-c2no[n+]([O-])c2-c2ccc(OC)cc2)c1COc1cccc2cccnc12
targetOfAssay: DU-145 prostate
answerLabel: 0 (no)
//
molecule: C=C1C(=O)O[C@H]2[C@H]1CC/C(COC(=O)CCCC(=O)OC/C1=C/CC[C@@]3(C)O[C@H]3[C@H]3OC(=O)C(=C)[C@@H]3CC1)=C\CC[C@@]1(C)O[C@@H]21
targetOfAssay: DU-145 prostate
answerLabel: 0 (no)
//
molecule: N#CC1=C(N)Oc2c(ccc3ccccc23)C1c1cccs1 (centres undefined)
targetOfAssay: DU-145 prostate
answerLabel: 1 (yes)
//
molecule: Cc1ccc(NC2=N[C@]34CC(=O)CC[C@]3(C)[C@H]3CC[C@]5(C)C(=O)CC[C@H]5[C@@H]3C[C@@H]4S2)c(C)c1
targetOfAssay: DU-145 prostate
answerLabel: 0 (no)

###

tested on: LOX IMVI melanoma; assay: NCI tumour cell line growth inhibition, 48 h

compound: O=C(Nc1cccc(Cl)c1)Nc1nccs1
targetOfAssay: LOX IMVI melanoma
TGI: > 100 µM
//
compound: C[n+]1c2ccccc2c(Nc2ccc(N3CCCCC3)cc2)c2[nH]c3ccccc3c21
targetOfAssay: LOX IMVI melanoma
TGI: 0.34 µM
//
compound: COC(=O)C1Cc2c([nH]c3ccccc23)C(c2ccccc2O)N1 (stereo not drawn)
targetOfAssay: LOX IMVI melanoma
TGI: > 100 µM
//
compound: S=C(Nc1ccccc1)Nc1ccccc1SC(/C=C/NNC1=NC(c2ccccc2)C(c2ccccc2)=NN1)c1ccccc1 (stereo not drawn)
targetOfAssay: LOX IMVI melanoma
TGI: > 100 µM
//
compound: COC(=O)C1=CN(CC2=CC(=O)C(C)=CC2=O)C=C(C(=O)OC)C1c1cc(OC)ccc1OC
targetOfAssay: LOX IMVI melanoma
TGI: 26.6 µM
//
compound: CN(C(=O)CCC(=O)O)c1ccccc1C(=O)O
targetOfAssay: LOX IMVI melanoma
TGI: > 100 µM
//
compound: COc1ccc(Oc2ccc3cc4c(cc3c2O)OCO4)c2cc(C)oc12
targetOfAssay: LOX IMVI melanoma
TGI: 43.9 µM
//
compound: C=CCOC(=O)C[C@H](NC(=O)[C@H](Cc1ccc(O)cc1)NCC(F)(F)F)C(=O)OCC=C
targetOfAssay: LOX IMVI melanoma
TGI: > 100 µM

###

This listing pairs molecules with measured TGI.
system: HOP-62 NSCLC; test: NCI tumour cell line growth inhibition, 48 h
propertyMeasured: TGI

molecule: COC(=O)C(Cc1ccc2c(c1)CCCC2)Cc1cc2c(cc1C(O)OC)CCC2 (stereo not given)
propertyMeasured: TGI
result: > 100 µM
//
molecule: C/C(=N\NC(=O)c1ccncc1)c1cccc(F)c1
propertyMeasured: TGI
result: > 10 µM
//
molecule: Oc1ccc(-c2nc(=S)[nH][nH]2)cc1
propertyMeasured: TGI
result: > 100 µM
//
molecule: CC(C)OC(=O)c1cc(NS(=O)(=O)c2ccc3ccccc3c2)cc(C(=O)OC(C)C)c1
propertyMeasured: TGI
result: > 100 µM
//
molecule: c1ccc2c(c1)CCN2CCN1CCc2ccccc21
propertyMeasured: TGI
result: > 10 µM
//
molecule: Cc1ccc(S(=O)(=O)N(CCN2C(=O)c3ccccc3C2=O)c2cc3c4c(c2)Oc2cc(N(CCN5C(=O)c6ccccc6C5=O)S(=O)(=O)c5ccc(C)cc5)cc5c2C4(C)c2c(cc(N(CCN4C(=O)c6ccccc6C4=O)S(=O)(=O)c4ccc(C)cc4)cc2O5)O3)cc1
propertyMeasured: TGI
result: > 100 µM
//
molecule: NCCCN1CCN(c2ccccc2)CC1
propertyMeasured: TGI
result: > 100 µM
//
molecule: C=CCOC(=O)C[C@H](NC(=O)[C@H](Cc1ccc(O)cc1)NCC(F)(F)F)C(=O)OCC=C
propertyMeasured: TGI
result: > 100 µM
//
molecule: CCOP(=O)(/C=C/n1ccc(N)nc1=O)OCC
propertyMeasured: TGI
result: > 100 µM
//
molecule: COc1ccc(Oc2ccc3cc4c(cc3c2O)OCO4)c2cc(C)oc12
propertyMeasured: TGI
result: > 100 µM
//
molecule: O=C1C(Cl)N(c2ccc(Cl)cc2Cl)C1c1c[nH]c2ccccc12 (stereo not given)
propertyMeasured: TGI
result: > 100 µM
//
molecule: NS(=O)(=O)c1nnc(NS(=O)(=O)c2ccc(F)cc2)s1
propertyMeasured: TGI
result: > 100 µM
//
molecule: CCCC(=O)c1c(NOC2OCC(OC(C)=O)C(OC(C)=O)C2OC(C)=O)nc(OC)n(C)c1=O (stereo not given)
propertyMeasured: TGI
result: > 100 µM
//
molecule: CC(=O)N(O)CCCCCNC(=O)CCC(=O)N(O)CCCCCNC(=O)CCC(=O)N(O)CCCCCN
propertyMeasured: TGI
result: > 100 µM
//
molecule: O=C1c2cccc(O)c2C(=O)c2cccc(O)c21
propertyMeasured: TGI
result: > 100 µM

###

test system: OVCAR-5 ovarian; assay: NCI tumour cell line growth inhibition, 48 h

molecule: CCN(CC)CCCNc1[nH]ncc2cc3c(nc4ccccc43)c(C)c12
TGI: 50.4 µM
//
molecule: c1ccc2c(CC3NCCN3)cccc2c1
TGI: > 100 µM
//
molecule: Cc1ccc(S(=O)(=O)NC(C(=O)O)C(C)C)cc1 (stereo not drawn)
TGI: > 100 µM
//
molecule: COC(=O)C#Cc1cccc(OC)c1OC
TGI: 51.3 µM
//
molecule: C/C=C/[C@@H](C(=O)OC)N1C(=O)c2ccccc2[C@H]1O
TGI: > 100 µM
//
molecule: O=C(CCc1ccc(O)c(O)c1)NCCc1cc(O)cc(OCc2ccccc2)c1
TGI: > 100 µM
//
molecule: NCCN.O=C([O-])C(=O)[O-].O=C([O-])C(=O)[O-].[Co+3].[K+]
TGI: > 100 µM
//
molecule: COc1ccc(CCCNC(=O)Cc2cc(OC)c(OC)cc2CO)cc1OC
TGI: > 100 µM
//
molecule: C=C1C(=O)O[C@H]2[C@H]1CC/C(COC(=O)/C=C\C(=O)NCc1ccc(Cn3c(=O)sn(CCCI)c3=O)cc1)=C\CC[C@@]1(C)O[C@@H]21
TGI: 1.59 µM
//
molecule: O=C1C(=Cc2cccs2)C(=O)N(CCc2ccccc2)S(=O)(=O)N1CCc1ccccc1
TGI: > 50 µM
//
molecule: CCOC(=O)c1nnn(-c2no[n+]([O-])c2-c2ccc(OC)cc2)c1COc1cccc2cccnc12
TGI: 8.21 µM
//
molecule: N#Cc1c(Br)n(C2OC(CO)C(O)C2O)c2ncn3ccnc3c12 (stereo not drawn)
TGI: > 100 µM
//
molecule: COc1cccc(N=Cc2cc(OC)c(OC)c(OC)c2)c1
TGI: > 100 µM
